Target Desc: IRAK4 (human)
Experimental Details: radiometric filter-binding kinase assay, Kinase HotSpot
Details: compound 0.5 µM; ATP 10 µM
Measure Name: residual activity (%)

>>> print(df.to_string())
                              record_smiles    target_desc  value
0  N/C(=N\N=C/c1ccc(-c2cccc([N+](=O)[O-])c2)o1)N[N+](=O)[O-]  IRAK4 (human)   87.3
1  O=c1[nH]c2ccccc2n1C1CCN(Cc2ccc(-c3nc4cc5[nH]cnc5cc4nc3-c3ccccc3)cc2)CC1  IRAK4 (human)    201
2   Cc1cc(Nc2nc(-c3ccccc3)nc3ccccc23)n[nH]1  IRAK4 (human)   93.2
3      COc1cc2ncnc(Nc3ccc(O)c(Br)c3)c2cc1OC  IRAK4 (human)   91.1
4  O=C1NC(=O)c2cc(Nc3ccc(F)cc3)c(Nc3ccc(F)cc3)cc21  IRAK4 (human)   98.1
5  O=C1NC(=O)c2c1c1c3ccccc3[nH]c1c1[nH]c3cc(Br)ccc3c21  IRAK4 (human)   76.2
6  COc1cc2c(cc1OC)-c1[nH]nc(Nc3cccc(F)c3)c1C2  IRAK4 (human)     70
7          COc1cccc(-c2cc(=O)c3ccccc3o2)c1N  IRAK4 (human)   86.4
8  N#CCCc1ccc2c(c1)-c1[nH]c3ccc([N+](=O)[O-])cc3c1CC(=O)N2  IRAK4 (human)    155
9  COc1cc2c(Nc3ccc(Br)cc3F)ncnc2cc1OCC1CCN(C)CC1  IRAK4 (human)   35.3

* * *

Target Desc: ACVR1B (human)
Experimental Details: radiometric filter-binding kinase assay, Kinase HotSpot
Details: compound 0.5 µM; ATP 10 µM
Measure Name: residual activity (%)

>>> df
                              record_smiles       measure_name  readout_units  value
0    N#Cc1c(NC(=O)c2cccc3ccccc23)sc2c1CCCC2  residual activity              %   96.5
1  COc1cc2c(cc1OC)-c1[nH]nc(Nc3cccc(F)c3)c1C2  residual activity              %   92.9
2  N#CCCc1ccc2c(c1)-c1[nH]c3ccc([N+](=O)[O-])cc3c1CC(=O)N2  residual activity              %    110

* * *

Parameter: residual activity. Scope: all listed entries.
Target Desc: CDK6 CCND1 (human) (UniProt Q00534+P24385)
Sequence (P24385 whole entry, looked up): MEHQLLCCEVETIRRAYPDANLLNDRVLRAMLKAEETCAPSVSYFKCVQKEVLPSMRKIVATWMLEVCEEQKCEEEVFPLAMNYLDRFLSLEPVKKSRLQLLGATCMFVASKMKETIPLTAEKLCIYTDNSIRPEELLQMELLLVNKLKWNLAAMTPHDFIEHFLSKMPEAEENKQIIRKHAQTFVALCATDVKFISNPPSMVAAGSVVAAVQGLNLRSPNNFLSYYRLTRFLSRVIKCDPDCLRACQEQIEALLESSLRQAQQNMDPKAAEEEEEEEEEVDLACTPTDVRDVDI
Sequence (Q00534 whole entry, looked up): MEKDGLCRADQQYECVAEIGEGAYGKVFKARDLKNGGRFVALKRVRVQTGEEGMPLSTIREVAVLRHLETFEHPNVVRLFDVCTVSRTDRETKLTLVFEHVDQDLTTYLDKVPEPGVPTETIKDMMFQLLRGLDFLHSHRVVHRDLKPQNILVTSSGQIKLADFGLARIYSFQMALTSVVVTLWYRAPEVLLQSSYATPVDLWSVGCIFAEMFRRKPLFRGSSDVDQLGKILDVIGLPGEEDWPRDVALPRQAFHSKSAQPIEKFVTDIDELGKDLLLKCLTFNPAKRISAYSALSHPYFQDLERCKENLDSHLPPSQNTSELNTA
Experimental Details: radiometric filter-binding kinase assay, Kinase HotSpot
Details: compound 0.5 µM; ATP 10 µM
Measure Name: residual activity (%)

                              record_smiles                               target_desc       measure_name  value
0       CCOc1cc2ncnc(Nc3cccc(Br)c3)c2cc1OCC  CDK6 CCND1 (human) (UniProt Q00534+P24385)  residual activity    102
1  COc1cc2c(Nc3ccc(Br)cc3F)ncnc2cc1OCC1CCN(C)CC1  CDK6 CCND1 (human) (UniProt Q00534+P24385)  residual activity   98.7
2  Cn1cc(/C=C2\C(=O)Nc3ccc(S(N)(=O)=O)cc32)c2ccccc21  CDK6 CCND1 (human) (UniProt Q00534+P24385)  residual activity   82.4
3  FC(F)(F)c1ccc(/C=C/c2nc(COc3ccc(CCCCn4ccnn4)cc3)co2)cc1  CDK6 CCND1 (human) (UniProt Q00534+P24385)  residual activity   95.4
4  O=c1c2ccccc2[nH]c(=S)n1CCN1CCC(=C(c2ccc(F)cc2)c2ccc(F)cc2)CC1  CDK6 CCND1 (human) (UniProt Q00534+P24385)  residual activity   98.7
5  N#CCCc1ccc2c(c1)-c1[nH]c3ccc([N+](=O)[O-])cc3c1CC(=O)N2  CDK6 CCND1 (human) (UniProt Q00534+P24385)  residual activity   6.79
6   Cc1cc(Nc2nc(-c3ccccc3)nc3ccccc23)n[nH]1  CDK6 CCND1 (human) (UniProt Q00534+P24385)  residual activity   85.5
7          O=C(c1ccccc1)c1ccc(N2CCOCC2)cc1O  CDK6 CCND1 (human) (UniProt Q00534+P24385)  residual activity   97.8
8  O=c1c(-c2ccc(F)cc2)c(-c2ccncc2)[nH]n1-c1ccc(Cl)cc1  CDK6 CCND1 (human) (UniProt Q00534+P24385)  residual activity   92.3
9      COc1cc2ncnc(Nc3ccc(O)c(Br)c3)c2cc1OC  CDK6 CCND1 (human) (UniProt Q00534+P24385)  residual activity   95.4

* * *

Target Desc: TSSK1B (human) (UniProt Q9BXA7)
Sequence (Q9BXA7 whole entry, looked up): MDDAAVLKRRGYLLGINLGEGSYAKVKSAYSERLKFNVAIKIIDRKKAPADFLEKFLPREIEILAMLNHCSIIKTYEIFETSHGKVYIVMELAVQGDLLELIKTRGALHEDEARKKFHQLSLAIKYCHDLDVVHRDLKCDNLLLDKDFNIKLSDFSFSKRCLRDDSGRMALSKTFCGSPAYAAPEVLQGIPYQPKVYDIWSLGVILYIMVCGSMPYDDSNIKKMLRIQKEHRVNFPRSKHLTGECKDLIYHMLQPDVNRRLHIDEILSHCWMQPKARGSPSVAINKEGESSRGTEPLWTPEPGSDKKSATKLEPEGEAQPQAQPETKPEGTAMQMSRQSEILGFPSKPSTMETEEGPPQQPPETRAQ
Experimental Details: radiometric filter-binding kinase assay, Kinase HotSpot
Details: compound 0.5 µM; ATP 10 µM
Measure Name: residual activity (%)

>>> print(df.to_string())
                              record_smiles                      target_desc       measure_name  value
0  O=c1[nH]c2ccccc2n1C1CCN(Cc2ccc(-c3nc4cc5[nH]cnc5cc4nc3-c3ccccc3)cc2)CC1  TSSK1B (human) (UniProt Q9BXA7)  residual activity   96.5
1        CCCCc1c(-c2ccc(O)cc2)[nH]c2nccnc12  TSSK1B (human) (UniProt Q9BXA7)  residual activity     62
2    N#Cc1c(NC(=O)c2cccc3ccccc23)sc2c1CCCC2  TSSK1B (human) (UniProt Q9BXA7)  residual activity   94.9
3  COc1cc2c(cc1OC)-c1[nH]nc(Nc3cccc(F)c3)c1C2  TSSK1B (human) (UniProt Q9BXA7)  residual activity   71.7
4  O=c1c2ccccc2[nH]c(=S)n1CCN1CCC(=C(c2ccc(F)cc2)c2ccc(F)cc2)CC1  TSSK1B (human) (UniProt Q9BXA7)  residual activity    106
5  O=c1c(-c2ccc(F)cc2)c(-c2ccncc2)[nH]n1-c1ccc(Cl)cc1  TSSK1B (human) (UniProt Q9BXA7)  residual activity   76.2
6  FC(F)(F)c1ccc(/C=C/c2nc(COc3ccc(CCCCn4ccnn4)cc3)co2)cc1  TSSK1B (human) (UniProt Q9BXA7)  residual activity   93.4
7          O=C(c1ccccc1)c1ccc(N2CCOCC2)cc1O  TSSK1B (human) (UniProt Q9BXA7)  residual activity    107
8       CCOc1cc2ncnc(Nc3cccc(Br)c3)c2cc1OCC  TSSK1B (human) (UniProt Q9BXA7)  residual activity   92.9
9  COc1cc2c(Nc3ccc(Br)cc3F)ncnc2cc1OCC1CCN(C)CC1  TSSK1B (human) (UniProt Q9BXA7)  residual activity   96.6

* * *

Parameter: residual activity. Scope: all listed entries.
Target Desc: WNK3 (human)
Experimental Details: radiometric filter-binding kinase assay, Kinase HotSpot
Details: compound 0.5 µM; ATP 10 µM
Measure Name: residual activity (%)

>>> df
                              record_smiles       measure_name  readout_units  value
0  COc1cc2c(cc1OC)-c1[nH]nc(Nc3cccc(F)c3)c1C2  residual activity              %    104
1  Cn1cc(/C=C2\C(=O)Nc3ccc(S(N)(=O)=O)cc32)c2ccccc21  residual activity              %     99
2  O=c1c(-c2ccc(F)cc2)c(-c2ccncc2)[nH]n1-c1ccc(Cl)cc1  residual activity              %   93.6
3  COc1cc2c(N3CCN(C(=O)Nc4ccc(OC(C)C)cc4)CC3)ncnc2cc1OCCCN1CCCCC1  residual activity              %    102
4      COc1cc2ncnc(Nc3ccc(O)c(Br)c3)c2cc1OC  residual activity              %   95.7

* * *

Target Desc: PNCK (human) (UniProt Q6P2M8)
Sequence (Q6P2M8 whole entry, looked up): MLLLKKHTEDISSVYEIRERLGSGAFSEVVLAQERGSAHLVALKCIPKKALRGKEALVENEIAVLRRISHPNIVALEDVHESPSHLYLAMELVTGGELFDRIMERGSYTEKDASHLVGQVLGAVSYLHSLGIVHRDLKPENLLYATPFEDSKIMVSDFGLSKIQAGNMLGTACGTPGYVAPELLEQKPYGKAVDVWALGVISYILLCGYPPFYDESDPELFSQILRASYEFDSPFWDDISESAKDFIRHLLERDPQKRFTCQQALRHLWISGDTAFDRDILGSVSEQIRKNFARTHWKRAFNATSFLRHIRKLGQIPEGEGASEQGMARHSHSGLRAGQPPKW
Experimental Details: radiometric filter-binding kinase assay, Kinase HotSpot
Details: compound 0.5 µM; ATP 10 µM
Parameter: residual activity. Scope: all listed entries.
Measure Name: residual activity (%)

>>> print(df.to_string())
                              record_smiles       measure_name  readout_units  value
0  c1ccc(-c2cnc(Nc3ccc(OCCN4CCCC4)cc3)s2)cc1  residual activity              %   99.8
1  O=c1c2ccccc2[nH]c(=S)n1CCN1CCC(=C(c2ccc(F)cc2)c2ccc(F)cc2)CC1  residual activity              %    109
2        CCCCc1c(-c2ccc(O)cc2)[nH]c2nccnc12  residual activity              %    109
3                   Nc1ncnc2c1cnn2-c1ccccc1  residual activity              %   97.5

Numbers sourced from the kinase profiling compilation of Christmann-Franck et al. (2016).
